For each entry below, report its cytotoxicity at 70.5 h value.
# Procedure summary: Human HepG2 cell viability assay in 384 well format
# Type: toxicity, cell-based
# Design: dose 125 nL, time 70.5 hour; concentration not given beside the values
# Condition description: HepG2 cells, read-out: Inhibition
Give bare numbers, in %.

Worked examples follow.
Documented cytotoxicity at 70.5 h of CCCC(C)Sc1nnnn1C1CCOCC1 (stereo unspecified) : -12.8

Documented cytotoxicity at 70.5 h of Cc1nc(C2CCN(C(=O)c3ccnn3C)CC2)c2sccn12 : -3.95

Documented cytotoxicity at 70.5 h of COc1ccccc1C(=O)N1CC(=O)N(C2CCCCC2)CC(O)C1 (stereo unspecified) : 15.8

Documented cytotoxicity at 70.5 h of CC(C)(C)c1nc(CN(Cc2cccs2)C2CCS(=O)(=O)C2)cs1 (stereo unspecified) : -2.81

Documented cytotoxicity at 70.5 h of COCCNc1nc(N2CCCC2)nc2nccnc12 : 26.5

Continuing:
Documented cytotoxicity at 70.5 h of N#CCCN(CC1CCOC1)S(=O)(=O)c1cccc(Cl)c1 (stereo unspecified) : -5.98

* * *

For each entry below, report its cytotoxicity at 70.5 h value.
# Procedure summary: Human HepG2 cell viability assay in 384 well format
# Type: toxicity, cell-based
# Set-up: dose 125 nL, time 70.5 hour; concentration not given beside the values
# Condition description: HepG2 cells, read-out: Inhibition
A complete answer gives the number and then names the unit.

Worked examples follow.
Documented cytotoxicity at 70.5 h of COc1cccc(C2CCN2C(=O)c2cnccn2)c1 (stereo unspecified) : -2.61%

Documented cytotoxicity at 70.5 h of O=C1[C@@H]2CN(c3ncnc4sccc34)C[C@]2(C(=O)O)CN1CC1CC1 : -11.3%

Documented cytotoxicity at 70.5 h of CNS(=O)(=O)c1ccc(CNC(=O)N(C)CC(C)C)cc1 : -94.7%

Documented cytotoxicity at 70.5 h of CC(C)(C)CC1CCCN1Cc1nc(-c2ccco2)no1 (stereo unspecified) : 18%

Documented cytotoxicity at 70.5 h of COc1cccc(F)c1C(C)NC(=O)NCc1cc(C(C)C)no1 (stereo unspecified) : -12.9%

Documented cytotoxicity at 70.5 h of CC(C)N1C[C@@H](F)[C@@H](OCc2nc3ncccc3[nH]2)C1 : -0.523%

Answer for every listed entry: what is its cytotoxicity at 70.5 h? The entries follow.
1. CCOC(=O)N1CCN(c2nc(NCCO)c3ccccc3n2)CC1
2. Cc1nc2cc(-c3nccn3C)nn2c(N2CCCC(O)C2)c1C (stereo unspecified)
3. Cc1cc2c(N)nc(=O)n(CC(=O)Nc3ccccc3)c2s1

*A*
1: -9.59%; 2: 0.494%; 3: 8.01%

Answer for every listed entry: what is its cytotoxicity at 70.5 h? The entries follow.
1. CN(C)CC(=O)N1CCc2sc(C(=O)N3CCN(C)CC3)cc21
2. CCn1c(C)cc(C(=O)N2CCC(Nc3cccnn3)CC2)c1C

*A*
1: -2.73%; 2: -108%

* * *

For each entry below, report its cytotoxicity at 70.5 h value.
# Procedure summary: Human HepG2 cell viability assay in 384 well format
# Format: toxicity, cell-based
# Parameters: dose 125 nL, time 70.5 hour; concentration not given beside the values
# Condition description: HepG2 cells, read-out: Inhibition
A complete answer gives the number and then names the unit.

Worked examples follow.
Documented cytotoxicity at 70.5 h of O=C1CCC(=O)N1CCOc1nc(-c2ccccc2Cl)no1 : -77.6%

Documented cytotoxicity at 70.5 h of CN(C)C(=O)N1CCC2(CC1)C(=O)N(CC1CCOC1)c1ccccc12 (configuration not stated) : -9.22%

Documented cytotoxicity at 70.5 h of CCNC(=O)C1CCN(Cc2ccc(C(=O)Nc3cnns3)cc2)C1 (configuration not stated) : 1.67%

Documented cytotoxicity at 70.5 h of CCCN1CCC[C@]2(CCC(=O)N2Cc2ccncc2)[C@H]1CC : -4.44%

Documented cytotoxicity at 70.5 h of c1coc(CN2CCn3c(nc4ccccc43)C2)c1 : 29.8%

Answer for every listed entry: what is its cytotoxicity at 70.5 h? The entries follow.
1. Cn1nc(Br)c2c(=O)n(CCc3ccccc3)cnc21
2. CC(CO)CSc1ncnc2[nH]ncc12 (configuration not stated)
3. CC1=C(C(=O)N2CCOC(Cc3cccc(C(F)(F)F)c3)C2)OCCO1 (configuration not stated)
4. CCCNC(=O)c1cn(C(C)(C)C)c2ncccc12
5. COCCN1CCC(CNc2nc3ccccc3o2)CC1
6. O=C(OCc1cccc(F)c1)c1cccc(C(=O)N2CCCC2)n1

*A*
-8.29%
-0.794%
-6.57%
-1.86%
1.47%
-1.08%

Documented cytotoxicity at 70.5 h of COC(=O)c1cccc(C(=O)NCc2ccc(C)o2)n1 : -18.5%
